- System: Fibroblast
- method_description: Multiplex assay against human fibroblast
- Type: toxicity, cell-based
- setup_conditions: 12 h, 10 µM, compound concentration 10 uM, replicate 2
readout_name: Population Apoptotic (%)
Please provide the amount together with its unit, number first.

# input Endpoint output: Population Apoptotic (%) of `Cc1ccc(C)c(Oc2ccncc2C(=O)N2CCN(C3CC3)c3ccccc32)c1` . Value?
# output 33%

# input Entry C=CC(=O)Nc1ccc2[nH]c(=O)n(C3CCN(Cc4ccc(-c5nc6cc[nH]c(=O)c6cc5-c5ccccc5)cc4)CC3)c2c1 [Borussertib] has what Population Apoptotic (%)?
# output 44%

# input Any idea what Population Apoptotic (%) was measured for Cc1c[nH]c2nccc(Oc3c(F)cc(Nc4cc(Cl)nc(N)n4)cc3F)c12 [BAY-549] ?
# output 40%

# input So what does the record say about Population Apoptotic (%) for CCCSc1nc(N[C@@H]2C[C@H]2c2ccc(F)c(F)c2)c2nnn([C@@H]3C[C@H](OCCO)[C@@H](O)[C@H]3O)c2n1 [TICAGRELOR] ?
# output 75%

# input Tell me the measured Population Apoptotic (%) of `CC(C)OC(=O)N1CCC(Oc2ncnc3c2cnn3-c2ccc(S(C)(=O)=O)cc2F)CC1` , please.
# output 18%

# input So what's the measured Population Apoptotic (%) for this one? COc1cc2ncn(-c3cc(OCc4ccccc4C(F)(F)F)c(C(N)=O)s3)c2cc1OC [GW843682X]
# output 50%

# input Entry Cc1ccccc1C(c1ccccc1C)N1C2CCC1CC(O)(c1ccccc1)C2 (centres undefined) has what Population Apoptotic (%)?
# output 40%

# input Could you share which Population Apoptotic (%) value was measured for `CCc1ccc(OCc2ccccc2C(=O)Nc2ccc3nc(C)cc(N)c3c2)cc1.Cl` ?
# output 76%

# input Reported Population Apoptotic (%), compound COc1ccc(-c2ccc3ncc4c(c3c2)n(-c2ccc(N3CCNCC3)c(C(F)(F)F)c2)c(=O)n4C)cn1.O=C(O)/C=C\C(=O)O [BGT-226] : ____
# output 100%

# input Can you share its Population Apoptotic (%)? I mean this compound: Cc1cccc(CN2CCN(C(c3ccccc3)c3ccc(Cl)cc3)CC2)c1.Cl.Cl (centres undefined)
# output 50%

# input Look at this compound and give its reported Population Apoptotic (%). C[C@]12CC[C@@H]3c4ccc(O)cc4CC[C@H]3[C@@H]1CC[C@@H]2O [ESTRADIOL]
# output 25%

# input Return reported Population Apoptotic (%); argument: CC(C)CC(=O)Nc1[nH]nc2c1CN(C(=O)C1CCN(C)CC1)C2(C)C [PHA-793887]
# output 33%

# input Please give the measured Population Apoptotic (%) for this compound: CC1=C(C(=O)Nc2cc3cn[nH]c3cc2F)C(c2ccc(C(F)(F)F)cc2)CC(=O)N1 (centres undefined)
# output 50%

# input Reported Population Apoptotic (%), compound CN1CCN(Cc2ccc(Nc3ncc(Cl)c(Nc4ccccc4S(=O)(=O)N(C)C)n3)cc2)CC1 [DUBERMATINIB] : ____
# output 73%
